Experiment: Solubility in water by spectrophotometry
Assay type: physicochemical
Label 1.0 when solubility is at or above 700 µg/mL; otherwise label 0.0.

O=C1Nc2ccc(C(=O)NCCO)cc2/C1=C1/Nc2ccccc2C1=O 0.0
CN1CCN(c2ccc(NC(=O)c3ccc4c(c3)/C(=C3/Nc5ccccc5C3=O)C(=O)N4)cc2)CC1 0.0
COS(=O)(=O)[O-].C[N+]1(C)CCN(C(=O)c2ccc3c(c2)/C(=C2/Nc4ccccc4C2=O)C(=O)N3)CC1 1.0
O=C1Nc2ccc(C(=O)O)cc2/C1=C1/Nc2ccccc2C1=O 0.0
CN(C)CCN(C)C(=O)c1ccc2c(c1)/C(=C1/Nc3ccccc3C1=O)C(=O)N2 0.0
C[N+]1(C)CCN(C(=O)c2ccc3c(c2)/C(=C2/Nc4ccccc4C2=O)C(=O)N3)CC1.[I-] 1.0

Reference for the values: ChEMBL document CHEMBL1165969
